Listed below: Z.CTG values for each entry.
system: ISC-enriched organoids; assay: Primary screen, 384-well 2.5-D organoid differentiation (ENR+CD, 6 days, Target Selective Inhibitor Library, vs whole-plate median): ATP (CellTiter-Glo 3D, CTG); conditions: Dose 2.00 uM; standard z score of FC
Where a name gives a salt, the structure may show the parent alone.
Enter the number alone.

// known answers, use as guide
1. Cc1cn(-c2cc(NC(=O)c3ccc(C)c(Nc4nccc(-c5cccnc5)n4)c3)cc(C(F)(F)F)c2)cn1
0.577
2. C#Cc1cccc(Nc2ncnc3cc(OCCOC)c(OCCO)cc23)c1
−3.016
3. C=C1C(=O)O[C@@H]2/C=C(\C)CC/C=C(\C)CC[C@@H]12 [Costunolide]
0.120
4. CO[C@H]1C[C@@H]2CC[C@@H](C)[C@@](O)(O2)C(=O)C(=O)N2CCCC[C@H]2C(=O)O[C@H]([C@H](C)C[C@@H]2CC[C@@H](OCCO)[C@H](OC)C2)CC(=O)[C@H](C)/C=C(\C)[C@@H](O)[C@@H](OC)C(=O)[C@H](C)C[C@H](C)/C=C/C=C/C=C/1C [Everolimus (RAD001)]
0.314
5. NC(=O)C1CCCc2c1[nH]c1ccc(Cl)cc21 (centres unmarked) [EX 527 (Selisistat)]
0.814
6. Cl.Cl.NC1(c2ccc(-c3nc4ccn5c(=O)[nH]nc5c4cc3-c3ccccc3)cc2)CCC1 [MK-2206 2HCl]
−0.425
7. COCCCC/C(=N\OCCN)c1ccc(C(F)(F)F)cc1 [Fluvoxamine maleate]
0.504
8. CC(=O)O[C@H]1C[C@@H]2CC[C@@H]3[C@H](CC[C@@]4(C)[C@H]3C[C@H]([N+]3(C)CCCCC3)[C@@H]4OC(C)=O)[C@@]2(C)C[C@@H]1[N+]1(C)CCCCC1.[Br-].[Br-] [Pancuronium dibromide]
−0.029

Exercise: Param readout = Z.CTG; param system = ISC-enriched organoids; param query = "CC(C)(C)c1nc(-c2cccc(NS(=O)(=O)c3c(F)cccc3F)c2F)c(-c2ccnc(N)n2)s1" ; response: value
Key: −0.667

Exercise: // next record "O=C(Nc1cccnc1)N1CCC(Cc2cccc(Oc3ccc(C(F)(F)F)cn3)c2)CC1"
Key: −0.246

Exercise: // next record "COc1cc(OC)c(NC(=O)Nc2cc(C)on2)cc1Cl"
Key: 0.271

Where do the numbers come from? From patent US20230398130A1.
